src = patent US20110038869A1

Here, each record is paired with measured % residual binding data.
Target system: T1, biotinylated CD32bECDHis (human, UniProt P31994 43-223, limits assumed, biotinylated (sites not given))
T1 sequence (looked up): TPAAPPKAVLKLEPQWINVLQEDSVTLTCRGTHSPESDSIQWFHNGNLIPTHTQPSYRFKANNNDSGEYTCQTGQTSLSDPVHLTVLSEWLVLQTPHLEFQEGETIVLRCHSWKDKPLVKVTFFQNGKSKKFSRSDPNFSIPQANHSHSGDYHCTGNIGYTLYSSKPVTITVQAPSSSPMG
Assay summary: competition ELISA, competitor 024
Give just the number in %; leave the unit off.

{"Binder": "Antibody 053 (antibody, human IgG1, V domains shown, Human antibody; also called HuMab 053) VH: QVQLVESGGGVVQPGRSLRLSCAVSGFTFRSYGMHWVRQAPGKGLEWVAVIWYDGSIKYYADSVKGRFTISRDNSKNTLYLQMNSLRAEDTAVYFCAREGGRDAFDIWGQGTMVTVSS VL: AVQLTQSPSSLSASVGDRVTITCRASQGISSALAWYQQKPGKAPKLLIYDASSLESGVPSRFSGSGSGTDFTLTISSLQPEDFATYCCQQFNSYPHTFGGGTKVEIKR", "Recorded metric": "% residual binding", "Readout unit": "%", "Recorded number": 6}

Now for a further binder.
Q: Respond only with % residual binding recorded for Antibody 038 (antibody, human IgG1, V domains shown, Human antibody; also called HuMab 038) VH: QVQLVESGGGVVQPGRSLRLSCAASGFTFSTYGMHWVRQAPGKGLEWVAVISHDGSDKYYADSVKGRFTISRDNSKNTLYLQMNSLRAEDTAVYYCARDQSIIETFDYWGQGTLVTVSS VL: EIVLTQSPATLSLSPGERATLSCRASQSVSSYLAWYQQKPGQAPRLLIYDASNRATGIPARFSGSGSGTDFTLTISSLEPEDFAVYYCQQRSNWGFTFGPGTKVDIKR
Ans: 351
